Hey, just so you know, these numbers are from patent US20110091971A1.

Quick reference for Sox 17 Intensity % of control among some molecules
- Test system: H1 or H9 human embryonic stem cells
- test details: Activin A bioassay: differentiation of human embryonic stem cells to definitive endoderm, cell number and SOX17 intensity by high content analysis (96-well, four days)
- Type: cell-based
- condition description: supernatant concentration 1x, assay dilution 1:20; control = R&D Sys Activin A 100 ng/ml on same plate
# output: bare number, implied unit %

Reported Sox 17 Intensity % of control for ACTN12: activin A variant peptide, SEQ ID 13 (protein) GLECDGKVNYCCKKQNFVSFKDIGWNDWIIAPSGYHANECSGLCPSHIAGTSGSSLSFHSTVINHYRMRGHSPFSQMGSCCIPTKLRPMSMLYYDDGQNIIKKDIQNMIVEECGCS : what is it?
4.3

# input molecule: ACTN38: activin A variant peptide, SEQ ID 39 (protein) GLECDGKVNLCCKKQDFVSFKDIGWNDWIIAPSGYHANKCGGKCPSHIAGTSGSSLSFHSTVINHYRMRGHSPFSQLGACCVPTKLRPMSMLYYDDGQNIIKKDIQNMIVEECGCS ; wanted: its Sox 17 Intensity % of control
1.0

For ACTN2: activin A variant peptide, SEQ ID 3 (protein) GLECDGKVNLCCKKQNFVSFKDIGWNDWIIAPSGYHANECTGKCPSHIAGTSGSSLSFHSTVINHYRMRGHSPFSDLGSCCIPTKLRPMSMLYYDDGQNIIKKDIQNMIVEECGCS , what is its reported Sox 17 Intensity % of control?
9.5
